All values here come from patent US20230285393A1.

pIC50: −log10 of the molar value.
Reported pIC50 for target or system ROCK2 (Homo sapiens (Human)), by entry.
Value Kind: pIC50

Worked examples, 3 compounds total:
O=C(C1CC(F)(F)C1)N1Cc2ccc(-c3nccc(Nc4ccc(-c5cn[nH]c5)cc4)n3)cc2C1; 7.36
Cn1c(C(=O)N2CC(F)(F)C2)cc2ccc(-c3nccc(Nc4ccc(-c5cn[nH]c5)cc4)n3)cc21; 7.48
O=C(C1CC(F)(F)C1)N1Cc2ccc(-c3ncc(F)c(Nc4ccc(-c5cn[nH]c5)cc4)n3)cc2C1; 7.35

[I] O=C(c1cc2ccc(-c3nccc(Nc4ccc(-c5cn[nH]c5)cc4)n3)cc2[nH]1)N1CC(F)(F)C1
[II] O=C(c1cc2ccc(-c3nccc(Nc4ccc(-c5cn[nH]c5)c(F)c4)n3)cc2[nH]1)N1CC(F)(F)C1
Request: Could you tell me which of I and II has the lower pIC50 reading? Indicate which entry you chose by stating its label.
Response: II
